Values compiled from PubChem BioAssay AID1159580.

# Assay Procedure: chemical genetic growth profiling, strain panel (AID 1159580);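 also: tested at 20 µM; growth read once vehicle control cultures reached saturation at 30 °C; 1 = growth at the plate median or of vehicle wells; lower values mean less growth of the strain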
# Settings: S. cerevisiae deletion strains, growth OD, locus YOR106W, strain vam3
Hit rate of the full screen: of about 5,500 compounds, about 2,000 (36%) were called active. Inconclusive results (about 18%) are left out. Rule as the data show it: active = normalized growth mostly below about 0.91 (no sharp cut-off); inconclusive = no clear call, values can overlap the other calls; inactive = mostly above about 0.92. The list shows a part of the results.
# valid calls are active, inactive; nothing else

C=C(C)c1cc2cc(C(C)=O)c(O)cc2o1 :: inactive
O=C(O)c1cccc(O)c1O :: inactive
CC1(C)C[C@@H]2C(=O)CC[C@H]3O[C@]3(C)CC[C@H]21 :: inactive

stdin: Given `CN(C)c1nc(N(C)C)nc(N(C)C)n1` , state the outcome it received in this test.
stdout: inactive

stdin: Given `COc1cc2ccc(=O)oc2c2ccoc12` , state the outcome it received in this test.
stdout: active

* * *

# Assay Procedure: chemical genetic growth profiling, strain panel (AID 1159580);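 also: tested at 20 µM; growth read once vehicle control cultures reached saturation at 30 °C; 1 = growth at the plate median or of vehicle wells; lower values mean less growth of the strain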
# Settings: S. cerevisiae deletion strains, growth OD, locus YOR119C, strain RIO1, hits give low values
The campaign covered roughly 5,500 compounds. About 2,000 (36%) were called active. Not shown: some 18% with an inconclusive outcome. This is one part of the list.
Give measured normalized growth for each item. Keep answers brief.
One number for each entry.

Below are worked cases with known answers.
O=S(=O)(Nc1ccc(-n2nc(C(F)(F)F)cc2-c2cccs2)cc1)c1ccc(F)cc1 :: 1.05
Cc1nc(C(F)(F)F)ccc1-c1nnc(SC(=O)c2ccc(Cl)cc2)o1 :: 0.909
CC(/C=C/c1ccccc1)=N/OC(=O)c1ccccc1Cl :: 0.961
COc1ccc(-c2cc(NS(=O)(=O)c3cccc(F)c3)n(-c3ccc(Cl)c(Cl)c3)n2)cc1 :: 0.944

Count: 2. Required value per item: normalized growth.
1. Nc1ccc(N2CCN(c3ccc(C(F)(F)F)cn3)CC2)nc1
2. Cc1oc(-c2ccc(Cl)cc2)cc1C(=O)N1CCN(c2ccc(C(F)(F)F)cn2)CC1

stdout:
0.923
0.929

* * *

# Assay Procedure: chemical genetic growth profiling, strain panel (AID 1159580);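 also: tested at 20 µM; growth read once vehicle control cultures reached saturation at 30 °C; 1 = growth at the plate median or of vehicle wells; lower values mean less growth of the strain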
# Settings: S. cerevisiae deletion strains, growth OD, locus YJL092W, strain hpr5, hits give low values
Out of some 5,500 compounds screened, about 2,000 (36%) were called active. About 18% were inconclusive and are not listed. Some of the results follow.
Outcome Measure: normalized growth
Numbers only.

Below are worked cases with known answers.
CC(C)=CCC1=C(O)c2ccccc2C(=O)C1=O :: 0.793
C=C1CC2C(CCC3(C)C(=O)CCC23)C2(C)C=CC(=O)C=C12 (stereo not drawn) :: 0.932

Please turn your attention to the following entry.
stdin: Given C[C@]12C=CC(=O)C=C1CCC1C2C(=O)C[C@@]2(C)C1CC[C@]2(O)C(=O)CO (stereo partly drawn) , state its recorded normalized growth.
stdout: 1

* * *

# Assay Procedure: chemical genetic growth profiling, strain panel (AID 1159580);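 also: tested at 20 µM; growth read once vehicle control cultures reached saturation at 30 °C; 1 = growth at the plate median or of vehicle wells; lower values mean less growth of the strain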
# Settings: S. cerevisiae deletion strains, growth OD, locus YDR502C, strain sam2
Out of some 5,500 compounds screened, about 2,000 (36%) were called active. About 18% were inconclusive and are not listed. No stated cut-off is given here; in the data, active means normalized growth mostly below about 0.91 (no sharp cut-off); inconclusive means no clear call, values can overlap the other calls; inactive means mostly above about 0.92. Some of the results follow.
# valid calls are label 1 = active, label 0 = inactive; nothing else

stdin: Given CC(=O)O[C@@H]1CC2C(C)(C)C(=O)[C@@H]3O[C@@H]3[C@]2(C)C2CC[C@]3(C)C(=CC(=O)O[C@H]3c3ccoc3)[C@@]21C (stereo partly specified) , state the outcome it received in this test.
stdout: label 0
